Listed compounds paired with reported EC50
Biological target: 5-hydroxytryptamine receptor 2A (Homo sapiens, UniProt P28223)
Sequence (P28223 whole entry): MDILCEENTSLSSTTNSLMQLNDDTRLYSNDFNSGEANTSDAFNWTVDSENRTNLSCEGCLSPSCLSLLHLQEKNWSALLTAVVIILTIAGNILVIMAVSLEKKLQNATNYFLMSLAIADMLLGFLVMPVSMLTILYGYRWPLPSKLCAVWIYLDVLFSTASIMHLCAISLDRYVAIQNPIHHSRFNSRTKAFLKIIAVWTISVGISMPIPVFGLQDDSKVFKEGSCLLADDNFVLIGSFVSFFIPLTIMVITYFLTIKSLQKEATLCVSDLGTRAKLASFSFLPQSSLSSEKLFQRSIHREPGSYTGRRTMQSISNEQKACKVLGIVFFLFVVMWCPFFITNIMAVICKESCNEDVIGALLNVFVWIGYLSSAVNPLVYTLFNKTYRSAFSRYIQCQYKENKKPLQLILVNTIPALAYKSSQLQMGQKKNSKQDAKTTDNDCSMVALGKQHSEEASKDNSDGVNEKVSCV
Assay: Agonist activity at human 5HT2A receptor expressed in HEK293 cells assessed as intracellular IP3 accumulation
PARAMETER: EC50 (nM)

{"COMPOUND": "CC1CNCCc2c(Cl)cc(Cl)cc21 (centres undefined)", "RESULT_UNIT": "nM", "CENSORING_SIGN": "=", "REPORTED": 126}
{"COMPOUND": "COc1ccc2c(c1)CCNCC2C (racemic)", "RESULT_UNIT": "nM", "CENSORING_SIGN": ">", "REPORTED": 10000}
{"COMPOUND": "CC1CNCCc2cccc(Cl)c21 (racemic)", "RESULT_UNIT": "nM", "CENSORING_SIGN": ">", "REPORTED": 10000}
{"COMPOUND": "C[C@H](N)Cc1cccc(C(F)(F)F)c1", "RESULT_UNIT": "nM", "CENSORING_SIGN": "=", "REPORTED": 200}
{"COMPOUND": "CC1CNCCc2cc(Cl)ccc21 (racemic)", "RESULT_UNIT": "nM", "CENSORING_SIGN": "=", "REPORTED": 158}
{"COMPOUND": "C[C@@H]1CNCCc2ccc(Cl)c(F)c21", "RESULT_UNIT": "nM", "CENSORING_SIGN": "=", "REPORTED": 1000}
{"COMPOUND": "C[C@@H]1CNCCc2ccc(C(F)(F)F)cc21", "RESULT_UNIT": "nM", "CENSORING_SIGN": "=", "REPORTED": 100}
{"COMPOUND": "CC1CNCCc2ccc(Cl)c(F)c21 (racemic)", "RESULT_UNIT": "nM", "CENSORING_SIGN": "=", "REPORTED": 794}
{"COMPOUND": "C[C@@H]1CNCCc2cc(Cl)c(Cl)cc21", "RESULT_UNIT": "nM", "CENSORING_SIGN": "=", "REPORTED": 100}

====

Listed compounds paired with reported EC50
Biological target: 5-hydroxytryptamine receptor 2A (Homo sapiens)
Test: Agonist activity at human 5HT2A receptor expressed in HEK293 cells assessed as intracellular IP3 accumulation

{"COMPOUND": "CC1CNCCc2c(Cl)cccc21 (racemic)", "CENSORING_SIGN": ">", "EC50 / nM": 10000}
{"COMPOUND": "CC[C@@H]1CNCCc2ccc(Cl)cc21", "CENSORING_SIGN": "=", "EC50 / nM": 316}
{"COMPOUND": "COc1ccc2c(c1)C(C)CNCC2 (racemic)", "CENSORING_SIGN": "=", "EC50 / nM": 251}
{"COMPOUND": "C[C@H]1CNCCc2ccc(Cl)c(Cl)c21", "CENSORING_SIGN": "=", "EC50 / nM": 2510}
{"COMPOUND": "C[C@H]1CNCCc2cc(Cl)c(Cl)cc21", "CENSORING_SIGN": "=", "EC50 / nM": 10}

====

System: Rattus norvegicus
Experiment: Reduction of food intake in Sprague-Dawley rat at 100 umol/kg, po after 2 hrs relative to control
Format: functional
PARAMETER: inhibition in vivo at 100 µmol/kg (%)

{"COMPOUND": "C[C@H]1CNCCc2cc(Cl)c(Cl)cc21", "REPORTED": 66}
{"COMPOUND": "C[C@@H]1CNCCc2ccc(Cl)c(Cl)c21", "REPORTED": 69}
{"COMPOUND": "C[C@H]1CNCCc2ccc(Cl)cc21", "REPORTED": 82}
{"COMPOUND": "C[C@@H]1CNCCc2cc(Cl)c(Cl)cc21", "REPORTED": 74}
{"COMPOUND": "CC1CNCCc2cc(F)c(Cl)cc21 (racemic)", "REPORTED": 58}

The reported measurements were obtained from ChEMBL document CHEMBL1140712.
